Below, each of the compounds is paired with its reported solubility at 1 day value.
Test: Solubility of SAM compounds in water, visual observation after standing at 25° C. for one day
Assay type: physicochemical
Conditions: water, 25 °C, water, thermodynamic from solid, SAM concentration 5 mM, water, 25° C., one day, visual observation; read-out: Solubility (solvent (H2O) allowed to stand at 25° C. for one day)

# annotated cases, reported solubility at 1 day shown
In [3]: df
Out[3]:
                                   compound   attribute_measured  result_value
0        OCCCCCCS [6-Hydroxy-1-hexanethiol]  solubility at 1 day        > 5 mM
1  OCCCCCCCCCCCS [11-Hydroxy-1-undecanethiol]  solubility at 1 day        < 5 mM
2  Cl.NCCCCCCCCCCCS [11-Amino-1-undecanethiol, hydrochloride]  solubility at 1 day        < 5 mM

Shifting focus to the compound that follows.
What value of measured solubility at 1 day is listed for OCCCCCCCCS [8-Hydroxy-1-octanethiol] ? < 5 mM
